Target: Bombyx mori EcR (VBE) (Bombyx mori)
Construct: expressed in transfected cells; host or cells: Human HEK-293 cells, retrovirally infected, clone Z3
Assay: Z3 assay: β-galactosidase reporter gene induction in HEK-293 clone Z3 (CVBE / 6XEcRE LacZ)
Format: cell-based
Conditions: 33 μM ligand, 48 h, RLU relative to DMSO
Please assign criterion not met whenever Fold Induction Average, Z3 assay is at or above 0.7, and criterion met whenever it is below.

{"compound": "COc1ccccc1C1=NOC(C)(C)N1NC(=O)Nc1ccccc1 [RG-120025]", "answerLabel": "criterion not met"}
{"compound": "Cc1cc(C)cc(C2=NOC(C)(C)N2NC(=O)NCc2ccccc2)c1 [RG-120088]", "answerLabel": "criterion not met"}
{"compound": "CC1(C)ON=C(c2cccc(C(F)(F)F)c2)N1NC(=O)COc1ccccc1 [RG-120163]", "answerLabel": "criterion met"}
{"compound": "COc1ccc(C2=NOC(C)(C)N2NC(=O)c2cc3ccccc3s2)c(OC)c1 [RG-120129]", "answerLabel": "criterion met"}
{"compound": "CC1(C)ON=C(c2ccc(Cl)cc2)N1NC(=O)Nc1ccccc1 [RG-120067]", "answerLabel": "criterion met"}

----------
Biological target: CfEcR (CDEF)/CfUSP, GST fusion protein (Choristoneura fumiferana)
Sequence (O77240 entry or part of it): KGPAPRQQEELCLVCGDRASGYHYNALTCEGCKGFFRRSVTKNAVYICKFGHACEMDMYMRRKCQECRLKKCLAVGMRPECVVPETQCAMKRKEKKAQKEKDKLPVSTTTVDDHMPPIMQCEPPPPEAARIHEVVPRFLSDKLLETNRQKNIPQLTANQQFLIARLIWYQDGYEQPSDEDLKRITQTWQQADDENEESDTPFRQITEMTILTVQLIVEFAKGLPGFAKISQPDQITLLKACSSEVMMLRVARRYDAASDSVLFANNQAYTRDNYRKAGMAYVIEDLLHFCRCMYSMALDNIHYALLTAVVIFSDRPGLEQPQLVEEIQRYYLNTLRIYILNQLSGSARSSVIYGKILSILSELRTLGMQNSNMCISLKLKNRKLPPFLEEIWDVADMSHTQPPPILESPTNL
Sequence (O76202 whole entry, further chain, the tested form may be a part): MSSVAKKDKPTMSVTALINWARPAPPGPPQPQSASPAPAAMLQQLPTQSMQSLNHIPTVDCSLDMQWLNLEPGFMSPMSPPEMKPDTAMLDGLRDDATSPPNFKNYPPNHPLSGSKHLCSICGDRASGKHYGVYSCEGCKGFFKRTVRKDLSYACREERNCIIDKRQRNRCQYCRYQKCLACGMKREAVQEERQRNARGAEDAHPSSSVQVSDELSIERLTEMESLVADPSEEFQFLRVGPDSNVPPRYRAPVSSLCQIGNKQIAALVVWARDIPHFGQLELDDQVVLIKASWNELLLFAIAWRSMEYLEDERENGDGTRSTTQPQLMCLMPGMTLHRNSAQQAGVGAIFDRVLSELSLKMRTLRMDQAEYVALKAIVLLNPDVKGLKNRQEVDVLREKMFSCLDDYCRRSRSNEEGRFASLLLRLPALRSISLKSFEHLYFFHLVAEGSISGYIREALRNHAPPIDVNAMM
Assay: CfEcR (CDEF)/CfUSP GST fusion protein assay
Assay type: binding
Details: GST fusion protein; read-out: CfEcR Kd
pKd: −log10 of the molar value.

{"compound": "CCc1ccc(C(=O)NN2C(c3cc(C)cc(C)c3)=NOC2(C)C)cc1 [RG-120060]", "subjectOfTest": "CfEcR (CDEF)/CfUSP, GST fusion protein (Choristoneura fumiferana)", "pKd": 7.42}

----------
Target: Bombyx mori EcR (VBE) (Bombyx mori, UniProt P49881)
Construct: expressed in transfected cells; host or cells: Human HEK-293 cells, retrovirally infected, clone Z3
Assay: Z3 assay: β-galactosidase reporter gene induction in HEK-293 clone Z3 (CVBE / 6XEcRE LacZ)
Format: cell-based
Settings: HEK293, 48 h, read-out: Fold Induction Average, Z3 assay

{"compound": "COc1cccc(C(=O)NN2C(c3ccccc3)=NOC2(C)C)c1C [RG-120042]", "fold induction at 33 µM": 19.3}
{"compound": "CCc1ccc(C(=O)NN2C(c3ccccc3)=NOC2(C)C)cc1 [RG-120115]", "fold induction at 33 µM": 9.1}
{"compound": "CCOC(=O)CCC(=O)NN1C(c2cc(C)cc(C)c2)=NOC1(C)CC (stereo not drawn) [RG-120126]", "fold induction at 33 µM": 2.4}
{"compound": "CCc1ccc(C(=O)NN2C(c3ccccc3OC)=NOC2(C)C)cc1 [RG-120026]", "fold induction at 33 µM": 41.1}
{"compound": "CCc1ccc(C(=O)NN2C(c3ccccc3)=NOC23CCCC3)cc1 [RG-120125]", "fold induction at 33 µM": 254}
{"compound": "COc1ccc(C2=NOC(C)(C)N2NC(=O)c2ccccc2)c(OC)c1 [RG-120096]", "fold induction at 33 µM": 0.7}
{"compound": "CCc1c(OC)cccc1C(=O)NN1C(c2ccc(Cl)cc2)=NOC1(C)C [RG-120099]", "fold induction at 33 µM": 0.2}
{"compound": "CCc1c(OC)cccc1C(=O)NN1C(c2ccccc2)=NOC1(C)CC (stereo not drawn) [RG-120076]", "fold induction at 33 µM": 0.2}
{"compound": "CCc1ccc(C(=O)NN2C(c3cc(C)cc(C)c3)=NOC2(C)C)cc1 [RG-120060]", "fold induction at 33 µM": 108}
{"compound": "CCc1ccc(C(=O)NN2C(c3cc(C)cc(C)c3)=NOC2(C)CC)cc1 (stereo not drawn) [RG-120128]", "fold induction at 33 µM": 403}
{"compound": "CCc1c(OC)cccc1C(=O)NN1C(c2cc(C)cc(C)c2)=NOC1(C)C [RG-120080]", "fold induction at 33 µM": 310}
{"compound": "CCc1ccc(C(=O)NN2C(c3ccc(Cl)cc3)=NOC2(C)C)cc1 [RG-120035]", "fold induction at 33 µM": 9.1}

----------
Fold Induction Average, Z3 assay listing for selected compounds.
Biological target: Bombyx mori EcR (VBE) (Bombyx mori, UniProt P49881)
Construct: expressed in transfected cells; host or cells: Human HEK-293 cells, retrovirally infected, clone Z3
Sequence (P49881 86-606 limits assumed): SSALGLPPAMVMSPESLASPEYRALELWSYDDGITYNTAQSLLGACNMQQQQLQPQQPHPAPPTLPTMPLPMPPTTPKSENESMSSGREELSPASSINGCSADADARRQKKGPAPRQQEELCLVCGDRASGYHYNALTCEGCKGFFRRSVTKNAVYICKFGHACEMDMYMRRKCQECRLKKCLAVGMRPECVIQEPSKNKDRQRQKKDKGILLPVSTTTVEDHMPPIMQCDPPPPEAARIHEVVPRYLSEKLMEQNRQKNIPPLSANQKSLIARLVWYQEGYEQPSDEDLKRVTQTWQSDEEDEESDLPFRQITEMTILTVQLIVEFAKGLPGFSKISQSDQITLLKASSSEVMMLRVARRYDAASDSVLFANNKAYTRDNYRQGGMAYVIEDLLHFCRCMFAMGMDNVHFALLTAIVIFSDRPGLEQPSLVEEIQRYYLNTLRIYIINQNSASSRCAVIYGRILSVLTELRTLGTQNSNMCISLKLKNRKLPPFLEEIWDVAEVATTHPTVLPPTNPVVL
Sequence (P19793 1-462 partner): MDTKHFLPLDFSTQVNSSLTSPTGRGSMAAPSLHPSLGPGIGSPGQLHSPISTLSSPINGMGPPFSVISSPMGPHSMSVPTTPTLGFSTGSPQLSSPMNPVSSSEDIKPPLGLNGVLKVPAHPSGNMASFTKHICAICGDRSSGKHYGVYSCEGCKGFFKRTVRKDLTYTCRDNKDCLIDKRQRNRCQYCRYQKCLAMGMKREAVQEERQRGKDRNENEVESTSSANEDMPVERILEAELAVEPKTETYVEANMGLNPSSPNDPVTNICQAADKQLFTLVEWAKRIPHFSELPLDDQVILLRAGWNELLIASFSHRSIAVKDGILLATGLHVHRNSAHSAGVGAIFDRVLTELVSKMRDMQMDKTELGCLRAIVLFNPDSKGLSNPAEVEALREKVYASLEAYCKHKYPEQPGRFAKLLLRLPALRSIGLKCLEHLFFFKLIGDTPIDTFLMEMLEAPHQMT
Assay: Z3 assay: β-galactosidase reporter gene induction in HEK-293 clone Z3 (CVBE / 6XEcRE LacZ)
Assay type: cell-based
Conditions: 33 μM ligand, 48 h, RLU relative to DMSO

{"compound": "COc1ccccc1C1=NOC(C)(C)N1NC(=O)C(F)(F)C(F)(F)Cl [RG-120062]", "subjectOfTest": "Bombyx mori EcR (VBE) (Bombyx mori, UniProt P49881)", "Fold Induction Average, Z3 assay": 0.6}
{"compound": "CC1(C)ON=C(c2cccc(C(F)(F)F)c2)N1NC(=O)c1ccco1 [RG-120070]", "subjectOfTest": "Bombyx mori EcR (VBE) (Bombyx mori, UniProt P49881)", "Fold Induction Average, Z3 assay": 0.7}
{"compound": "CC1(C)ON=C(c2ccc(OC(F)(F)F)cc2)N1NC(=O)c1ccccc1 [RG-120033]", "subjectOfTest": "Bombyx mori EcR (VBE) (Bombyx mori, UniProt P49881)", "Fold Induction Average, Z3 assay": 0.7}
{"compound": "COc1ccc(C2=NOC(C)(C)N2NC(=O)Nc2ccccc2)c(OC)c1 [RG-120114]", "subjectOfTest": "Bombyx mori EcR (VBE) (Bombyx mori, UniProt P49881)", "Fold Induction Average, Z3 assay": 0.6}
{"compound": "Cc1cc(C)cc(C2=NOC3(CCCC3)N2NC(=O)COCc2ccccc2)c1 [RG-120052]", "subjectOfTest": "Bombyx mori EcR (VBE) (Bombyx mori, UniProt P49881)", "Fold Induction Average, Z3 assay": 4.9}

----------
// reported fold induction at 33.3 µM for each item listed
Molecular target: GAL4 DBD (1-147)-CfEcR(DEF)/VP16AD-βRXREF-LmUSPEF (Choristoneura fumiferana, UniProt O77240)
Construct: The wild-type D, E, and F domains from spruce budworm Choristoneura fumiferana EcR (“CfEcR-DEF”)
Assay: cell-based
Conditions: 48 h, read-out: Fold Induction Average, 27-63 assay
readoutLabel: fold induction at 33.3 µM

{"compound": "Cc1cc(C)cc(C2=NOC3(CCOCC3)N2NC(=O)c2ccccc2)c1 [RG-120019]", "reportedValue": 1.5}
{"compound": "CCc1ccc(C(=O)NN2C(c3cc(C)cc(C)c3)=NOC23CCCC3)cc1 [RG-120040]", "reportedValue": 242}
{"compound": "CCc1c(C(=O)NN2C(c3cc(C)cc(C)c3)=NOC2(C)CC)ccc2c1OCCO2 (stereo not drawn) [RG-121518]", "reportedValue": 2340}
{"compound": "CCC1(C)ON=C(c2ccccc2)N1NC(=O)c1ccccc1 (stereo not drawn) [RG-120118]", "reportedValue": 13.4}
{"compound": "CCc1c(OC)cccc1C(=O)NN1C(c2ccccc2OC)=NOC1(C)C [RG-120016]", "reportedValue": 1150}
{"compound": "CCc1c(OC)cccc1C(=O)NN1C(c2cc(C)cc(C)c2)=NOC12CCCC2 [RG-120049]", "reportedValue": 2070}
{"compound": "CCc1ccc(C(=O)NN2C(c3ccccc3)=NOC23CCCC3)cc1 [RG-120125]", "reportedValue": 510}
{"compound": "CCc1ccc(C(=O)NN2C(c3ccc4c(c3)OCO4)=NOC2(C)C)cc1 [RG-120061]", "reportedValue": 0.9}
{"compound": "CCc1c(OC)cccc1C(=O)NN1C(c2cccc(C(F)(F)F)c2)=NOC1(C)C [RG-120093]", "reportedValue": 5}
